Target: HsKRS (Homo sapiens)
Construct: HsKRS (full-length) proteins; 6xHis (N); made in house; host or cells: E. coli Rosetta BL21(DE3), vector pAVA0421 (UW); template pET28a-KRS
Sequence (Q15046 whole entry): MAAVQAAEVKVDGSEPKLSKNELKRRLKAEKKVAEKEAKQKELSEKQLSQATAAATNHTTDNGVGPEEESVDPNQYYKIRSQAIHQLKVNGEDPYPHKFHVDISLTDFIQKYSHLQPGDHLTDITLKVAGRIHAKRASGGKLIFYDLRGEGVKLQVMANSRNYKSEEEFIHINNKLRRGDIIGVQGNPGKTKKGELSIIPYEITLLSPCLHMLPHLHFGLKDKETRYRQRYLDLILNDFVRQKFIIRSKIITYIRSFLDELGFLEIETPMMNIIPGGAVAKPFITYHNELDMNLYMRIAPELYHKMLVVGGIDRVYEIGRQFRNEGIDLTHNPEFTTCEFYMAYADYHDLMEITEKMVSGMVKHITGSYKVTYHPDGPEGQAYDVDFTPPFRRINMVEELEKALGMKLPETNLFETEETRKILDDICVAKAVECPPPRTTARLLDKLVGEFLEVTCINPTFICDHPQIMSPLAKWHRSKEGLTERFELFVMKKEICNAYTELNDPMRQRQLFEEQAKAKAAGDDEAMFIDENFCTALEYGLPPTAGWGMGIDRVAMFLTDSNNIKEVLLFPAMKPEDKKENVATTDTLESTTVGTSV
Method summary: HsKRS SAR assay, luciferase ATP consumption (Kinase-Glo)
Type: biochemical
Experimental: We produced recombinant PfKRS1 (77–583 and 80–583), CpKRS (46-end), and HsKRS (full-length) proteins and developed biochemical assays based on the luciferase ATP consumption assay (Kinase-Glo; Promega) ([16]), which was suitable for the high-throughput screening, and the pyrophosphate generation assay (EnzChek) ([17]) format for kinetic characterization of the enzymes. The activities of recombinant enzymes were analyzed by monitoring only the first stage of the aminoacylation reaction. […]
pIC50: −log10 of the molar value.
Quantity kind: pIC50

Example cases with answers are listed next.
O=C(NCC1CCCCC1)c1cc(=O)c2ccccc2o1 | < 5.70
C[C@H]1CCC[C@H](C[C@H]2Cc3cc(O)cc(O)c3C(=O)O2)O1 [Compound 1, cladosporin, reference compound] | < 5.70

From here, focus on the item given below.
Exercise: Note down pIC50 recorded for O=C(NCC1CCCCC1)c1cc(=O)c2cc(F)ccc2o1
Solution: < 5.70
